// provenance: patent US6770637B2

biological target: human NK1 receptor (Homo sapiens, UniProt P25103); construct: membrane suspension; assay: NK1 receptor binding assay, displacement of [3H]substance P; details: affinity to the NK-1 receptor; human NK1 receptors in CHO cells (Semliki virus expression system); [3H]substance P 0.6 nM
Sequence (P25103 whole entry): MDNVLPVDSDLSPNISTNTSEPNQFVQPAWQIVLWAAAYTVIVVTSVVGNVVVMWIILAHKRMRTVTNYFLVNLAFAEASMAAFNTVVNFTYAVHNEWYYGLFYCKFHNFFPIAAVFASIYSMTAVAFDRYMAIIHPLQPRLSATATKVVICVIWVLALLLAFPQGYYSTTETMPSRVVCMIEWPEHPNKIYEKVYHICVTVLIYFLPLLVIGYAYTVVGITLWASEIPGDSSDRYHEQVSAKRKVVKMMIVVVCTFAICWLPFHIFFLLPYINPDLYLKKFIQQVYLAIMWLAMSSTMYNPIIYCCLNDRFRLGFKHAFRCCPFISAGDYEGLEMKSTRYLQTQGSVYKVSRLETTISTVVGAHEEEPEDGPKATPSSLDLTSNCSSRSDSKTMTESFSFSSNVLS
Recorded metric: Ki
Just so you know, I need the unit written after the number.

Some solved entries appear below for comparison.
compound=Cc1ccccc1-c1cc(Cl)ncc1N(C)C(=O)C(C)(C)c1cc(C(F)(F)F)cc(C(F)(F)F)c1 recorded_metric=Ki result="2.24 nM"
compound="Cc1ccccc1-c1cc([S+]([O-])c2ccccn2)ncc1C(=O)N(C)Cc1cc(C(F)(F)F)cc(C(F)(F)F)c1 (racemic)" recorded_metric=Ki result="2.63 nM"

Which Ki value is on record for `Cc1noc(-c2cc(-c3ccccc3C)c(C(=O)N(C)Cc3cc(C(F)(F)F)cc(C(F)(F)F)c3)cn2)n1` ? 3.02 nM

Let us now turn to `Cc1ccccc1-c1cc(OCCCO)ncc1C(=O)N(C)Cc1cc(C(F)(F)F)cc(C(F)(F)F)c1` 1.66 nM
